B1: glmS ribozyme (parent)
chain: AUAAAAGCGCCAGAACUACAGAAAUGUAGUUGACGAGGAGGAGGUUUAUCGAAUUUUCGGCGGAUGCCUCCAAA

Variants of: B1
assay.name: self-cleavage kobs at 2500 uM GlcN6P; higher = faster cleavage; RNA array
measurement.context: with glucosamine-6-phosphate
This sample holds only a part of the variants without activity.
Answer NOT MET if self-cleavage kobs at 2500 uM GlcN6P is under 0.0003 s⁻¹, and MET if it is 0.0003 s⁻¹ or more.

                      variant_string  label_class
0                     G41A C58U C70G      NOT MET
1  A6U C11U U57G C58G C61A C68U C70U          MET
2                           G9A C58G      NOT MET
3                           C8G U30C      NOT MET
4                     C50A U65G C67A      NOT MET
5      A12C A15U G41A A53C C58U U65A      NOT MET
6                          U54A C67A          MET
7                      G7C G21U C67G      NOT MET

Data request: Entry G29U A53G C67G : is its self-cleavage kobs at 2500 uM GlcN6P no less than 0.0003 s⁻¹?
Data returned: NOT MET

Data request: For this variant, is measured self-cleavage kobs at 2500 uM GlcN6P 0.0003 s⁻¹ or higher? G13C G43U C58G
Data returned: NOT MET

Data request: Confirm if self-cleavage kobs at 2500 uM GlcN6P reported for the variant A42U C50G G62A C71U is 0.0003 s⁻¹ or above.
Data returned: NOT MET

Data request: Decide: is the reported value of self-cleavage kobs at 2500 uM GlcN6P for U69G C70A equal to or greater than 0.0003 s⁻¹?
Data returned: NOT MET

Data request: Is it the case that A42G A48U U56A has self-cleavage kobs at 2500 uM GlcN6P reaching or exceeding 0.0003 s⁻¹?
Data returned: NOT MET

Data request: Given the entry G7A A48G C70U , answer whether its self-cleavage kobs at 2500 uM GlcN6P meets or surpasses 0.0003 s⁻¹.
Data returned: NOT MET

Data request: Kindly determine if self-cleavage kobs at 2500 uM GlcN6P recorded for A14U U31G A39C is above or exactly 0.0003 s⁻¹.
Data returned: MET

Data request: Textbook exercise: given the entry G35A C50U , state whether its self-cleavage kobs at 2500 uM GlcN6P is greater than or equal to 0.0003 s⁻¹.
Data returned: NOT MET

Data request: I'd appreciate it if you could say whether U31C U45C has self-cleavage kobs at 2500 uM GlcN6P at least equal to 0.0003 s⁻¹.
Data returned: NOT MET

Data request: Record U31G G41U ; criterion: self-cleavage kobs at 2500 uM GlcN6P no lower than 0.0003 s⁻¹. Met?
Data returned: MET
